- System: LKB1;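 further: KINOMEscan scanMAX binding as percent activity remaining versus control; lower means stronger binding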
- Construct: gene STK11
- run parameters: Compound Concentration (nM):1000
measurement name: Percent Control (%)
Answer format: numeric, % implied, no suffix.

Query string: I have this compound here, COc1cc(N2CCN(C(C)C)CC2)ccc1Nc1nc(Nc2ccc(F)cc2C(=O)NC[C@@H](O)CO)c2cc[nH]c2n1 [GSK1392956A] , and I need its recorded Percent Control.
Result string: 81

Query string: Another: Cl.O=S1CCN(Cc2ccc(-c3ccc4ncnc(Nc5ccc(OCc6ccccc6)c(F)c5)c4c3)o2)CC1 [GW576924A]
Result string: 100

Query string: How about Cl.c1ccc(Cc2nc3ccc(Nc4ncnc5ccccc45)cc3[nH]2)cc1 [GR269666A] ?
Result string: 100

Query string: Same lookup for CN(C)CCNC(=O)Nc1ccc(N(C)c2ccnc(Nc3ccc(CS(C)(=O)=O)cc3)n2)cc1.Cl [GW830900A] , please.
Result string: 83

Hey, just so you know, these numbers are from paper PMC7826789.
